Measured values drawn from PubChem BioAssay (NCI) for this set.

Test system: RPMI-8226 leukemia
Experiment: NCI-60 one-dose screen, 48 h
Conditions: 10 µM unless noted
The panel holds about 83,000 compounds, 20% with a hit somewhere; the sample as a whole holds those more often. Active and inactive are the calls of the source. How the source made its calls: active means growth percent below 10; inactive means the rest.
The reply should name one outcome from TRUE = active, FALSE = inactive

Query: recorded result category for "Nc1nc(Nc2cccnc2)sc1C(=O)c1ccccc1F" in this test
FALSE

Assay outcome for "CCc1c2c(nc3ccc(OCc4ccc(B5OC(C)(C)C(C)(C)O5)cc4)cc13)-c1cc3c(c(=O)n1C2)COC(=O)[C@]3(O)CC" : what was it?
FALSE

GET /call?item= "CCCCCCCCCCCCCCCC[N+](C)(C)CCN(Cc1ccc(OC)cc1)c1ncccn1" returns the recorded outcome of this test.
FALSE

Hi, do you know how O=C(CN1C(=O)S/C(=C\C(Cl)=C\c2ccccc2)C1=O)NC1C=CS(=O)(=O)C1 (stereo not drawn) came out in this test?
TRUE

What did this assay record as the result for "[Cu+].[NH-][C@H]1C[N-]C(=O)[C@H]([C@H]2CCN=C(N)N2)[N-]C(=O)/C(=C\NC(N)=O)[N-]C(=O)[C@H](CNC(=O)C[C@@H](N)CCCN)[N-]C(=O)[C@H](CO)[N-]C1=O" ?
FALSE

Call for entry "COc1ccc(/C=C/C(=O)c2cc3c(N)c(C(=O)Nc4ccccc4)sc3nc2C)cc1" :
TRUE

Fill in: this test's call for "Cc1ccc(Cc2cnc(NC(=O)c3cc(C)oc3C)s2)cc1" is ___
FALSE

Recorded test call requested for "COc1ccc2c(O)c(/C=C3\N=Nc4nc(C)ccc43)oc2c1CC1CCNCC1"
FALSE

====

Assign growth to each entry below.
Test system: NCI-H23 lung
Experiment: NCI-60 one-dose screen, 48 h (100 = growth as untreated, 0 = no growth, -100 = all killed)
Conditions: 10 µM unless noted
About 83,000 compounds went through this panel and 20% of them were active in at least one assay; those are over-represented in the sample as a whole.
The answer is to be given in %; state only the numeric part.

Specify measured growth for CCN1C(=O)N(c2ccccc2)C2NC(=S)N(/N=C/C=C/c3ccccc3)C21 (stereo not given) .
21.1

Input "COc1ccc(/C(C)=C(\c2ccc(OCCN3CCOCC3)cc2)c2ccc(OC(=O)C3CCCCC3)cc2)cc1" , output reported growth.
101

Provide measured growth value, entry: CN1CCCc2cc(/C=C3\SC(=S)N(C(Cc4ccc(O)cc4)C(=O)O)C3=O)ccc21 (stereo not given)
78

// fetch growth given entry "Nc1ccc(-c2nc3ccc4[nH]ncc4c3c3c2CCCC3)cc1F"
19.7

Quick one: give measured growth for "CCc1c2c(nc3ccc(OCc4ccc(B5OC(C)(C)C(C)(C)O5)cc4)cc13)-c1cc3c(c(=O)n1C2)COC(=O)[C@]3(O)CC"
-23.1

====

Test system: NCI/ADR-RES ovarian
Experiment: NCI-60 one-dose screen, 48 h (100 = growth as untreated, 0 = no growth, -100 = all killed)
Details: 10 µM unless noted
Compounds without any hit were thinned out: in the full panel of roughly 83,000, 20% have a hit.
Experimental Readout: growth (%)
The response must be a number in % with no trailing unit.

Report growth, nothing else, for this molecule: "O=C1Nc2ccccc2/C1=C/c1cccn1CCCCCn1c2ccccc2c(=O)c2ccccc21"
60.9

Return growth for the following molecule: "Cc1ccc(-c2nc([P+](c3ccccc3)(c3ccccc3)c3ccccc3)c(Nc3ccccc3)o2)cc1"
-3.38

Provide measured growth value, entry: "COC(=O)N/N=C/c1c[n+]([O-])c2ccccc2[n+]1[O-]"
102

Supply measured growth of "COc1ccc(-c2nn3c(-c4cc(F)c(Cl)cc4Cl)nnc3s2)cc1" in your reply.
3.63

Consider the molecule "C=CCNC(=O)Cc1c(-c2ccc(OC)cc2)oc2c(OC)c3c(c(OC)c12)OCO3" and give its recorded growth.
98.2

====

Kindly supply the reported growth values for the records listed here.
Tested on: CCRF-CEM leukemia
Assay: NCI-60 one-dose screen, 48 h (100 = growth as untreated, 0 = no growth, -100 = all killed)
Conditions: 10 µM unless noted
This is part of a sample that, as a whole, favours compounds with a hit. Of some 83,000 tested, about 20% had one in any assay.
API: value field is a number in %; no unit string.

Identify the reported growth for the following entry. "c1ccc(Cc2cccc[n+]2C(c2ccccc2)c2ccccc2)cc1"
48.6

Note growth for the compound shown: "O=C(Nc1ccccc1C(=O)N/N=C(\c1ccccc1)c1ccccn1)c1ccccc1"
-2.61

Supply recorded growth for "O=[N+]([O-])c1ccc2[nH]c3nccc(NCc4cccc(Cl)c4)c3c2c1" here.
79.6

Item "[2H]C([2H])([2H])Oc1cc(F)ccc1/C=C/C(=O)/C=C(/C=C/c1ccc(F)cc1OC([2H])([2H])[2H])OB(F)F" : provide growth
2.38

Given the compound "NC1=CC(=O)c2cccnc2C1=O" , write its reported growth.
-24.3

====

System: M14 melanoma
Assay: NCI-60 one-dose screen, 48 h
Details: 10 µM unless noted
The panel holds about 83,000 compounds, 20% with a hit somewhere; the sample as a whole holds those more often. Active and inactive are the calls of the source. Rule for the calls: active = growth percent below 10; inactive = the rest.
Pick one and only one: True = active, False = inactive

What call does the record list for "CC(C)(C)c1cc(C(C)(C)c2ccccc2)cc(Cc2cc(C(C)(C)c3ccccc3)cc(C(C)(C)C)c2O)c1O" ?
False

Any idea what this test logged for "CS(=O)(=O)Nc1cc(-c2ccc3ncnc(Nc4ccc(F)c(Cl)c4)c3c2)cnc1Cl" ?
True

Please let me know the test result on file for "COc1ccc(CN2CCc3c(Cl)nc(N)nc3C2=O)c(OC)c1" .
True

// return assay outcome for "CCCCn1c(C(=O)c2c[nH]c3ccccc23)n[nH]c1=S"
False

Record lookup: outcome of this test for Cc1nc2sc(C(=O)Nc3cccc(Cl)c3C)c(N)c2cc1C(O)c1ccccc1 (stereo not given) ?
True

====

Provide the reported growth of each item.
System: SNB-19 CNS
Assay: NCI-60 one-dose screen, 48 h (100 = growth as untreated, 0 = no growth, -100 = all killed)
Settings: 10 µM unless noted
The panel holds about 83,000 compounds, 20% with a hit somewhere; the sample as a whole holds those more often.
Just the number please, in %, no unit attached.

Retrieve growth measured for "O=C(NCc1cccnc1)/C(=C\c1ccc(Br)cc1)S(=O)(=O)c1ccccc1" and print it.
-2.37

Give recorded growth. "O=C(NCCCN1CCCCC1)c1ccc(-c2nc3ccc4[nH]ncc4c3c3c2CCCC3)cc1"
78.2

Provide only the value of recorded growth for "CCOC(=O)c1nc2c3ccccc3cnn2c1C(=O)c1ccc(OC)cc1"
90.7

Using the record for "N=C(N)c1ccc(-c2ccc(-c3ccc(Cl)c(Cl)c3)s2)cc1" , state its measured growth.
-23.8

State, in one line, measured growth of "CN1CCN(C(=O)OCc2nc3c(N4CCOCC4)nc(Cl)nc3n2C)CC1"
57.9

Look up and report measured growth for this entry: "Brc1ccc(/C=C(/C2=NCCN2)n2ccc3ccccc32)cc1"
85.1

Identify measured growth corresponding to "COc1ccc(NC(=O)Nc2ccccc2CNc2nc(Nc3ccc(OCCN4CCCC4)cc3)ncc2Cl)cc1"
33.9

Give the reported growth for this molecule. "Cc1nn(-c2nc(-c3cc4ccccc4oc3=O)cs2)c(C)c1N=Nc1ccccc1"
101

Answer with the recorded growth of "COc1cc(F)c(/C=C/c2cc(/C=C/c3cc(OC)c(OC)cc3F)n(-c3cc(F)cc(F)c3)n2)cc1OC" only.
56.7

Determine its reported growth: "O=C1C(Nc2ccc(Cl)cc2)=C(I)C(=O)c2ncccc21"
69.3

====

System: SF-268 CNS
Test: NCI-60 one-dose screen, 48 h (100 = growth as untreated, 0 = no growth, -100 = all killed)
Conditions: 10 µM unless noted
About 83,000 compounds went through this panel and 20% of them were active in at least one assay; those are over-represented in the sample as a whole.
Please use met for growth under 90% and not met for everything else, ties included.

Please indicate whether the reported growth of "Nc1nc(CSc2n[nH]c(N)n2)nc(Nc2ccccc2)n1" is strictly below 90%.
not met

Does this molecule meet the criterion growth < 90%? "c1ccc(Cc2cccc[n+]2C(c2ccccc2)c2ccccc2)cc1"
met

Consider the molecule "Cc1ccc(-c2nc(C#N)c(S(=O)(=O)N(C)C)o2)cc1" . Is its growth strictly less than 90%?
not met

A record lists "[2H]C([2H])([2H])Oc1cc(F)ccc1/C=C/C(=O)/C=C(/C=C/c1ccc(F)cc1OC([2H])([2H])[2H])OB(F)F" . Is its growth below 90%?
met

Is 90% strictly greater than the molecule's reported growth? molecule: "N=C(N)SCc1c2ccccc2c(CSC(=N)N)c2ccccc12"
met

Please indicate whether the reported growth of "Cc1ccc(NC(=O)N/C(N)=N/c2nc(=O)c3ccccc3s2)cc1" is strictly below 90%.
not met

Please indicate whether the reported growth of "Cc1cccc(-c2nnc(SCC(=O)Nc3ncc(Cc4ccccc4)s3)n2N2C(=O)CSC2=S)c1" is strictly below 90%.
met

Strictly below 90% in growth? "CCN1CCN(CC(=O)Nc2nc3ccc(NCc4ccc(C)cc4)cc3s2)CC1"
met

Field: below-cutoff. Rule: recorded growth strictly less than 90%. Subject: "Cn1c(=O)c2c(nc(Nc3cc(=O)[nH]c(=O)[nH]3)n2Cc2ccccc2)n(C)c1=O"
met

In the record for "CC(C)(C)c1cc(C(C)(C)c2ccccc2)cc(Cc2cc(C(C)(C)c3ccccc3)cc(C(C)(C)C)c2O)c1O" , is growth less than 90%?
not met

Regarding COc1ccc(/C=N/C2=C(C#N)C(c3ccccc3)c3c(ccc4ccccc34)O2)cc1 (centres undefined) , kindly confirm whether its growth is beneath 90%.
met

Could you please tell me whether growth recorded for "O=C1C(N2CCOCC2)=C(I)C(=O)c2ncccc21" is less than 90%?
met

Here's an entry: "O=C(N/N=C/c1ccc(O)cc1O)c1cccc(Nc2ccnc(C(F)(F)F)c2)c1" . Is its growth below 90%?
met

Please determine if "O=C(NCc1cccnc1)/C(=C\c1ccc(Br)cc1)S(=O)(=O)c1ccccc1" is below 90% in terms of growth.
met

For "O=C(CCCCCCCCC(=O)N/N=C\c1ccccc1O)N/N=C\c1ccccc1O" , is the recorded growth below the cut-off of 90%?
met

Given "COc1cc(/C=C2/C=C(c3ccc(C(C)(C)C)cc3)N(CCc3ccc(S(N)(=O)=O)cc3)C2=O)cc(OC)c1OC" , is recorded growth strictly lower than 90%?
met
